The reported numbers originate from patent US20130345215A1.

system: Wnt stimulated TCF transcriptional activity, HEK293-TS 112 TCF reporter cell line; test: Tankyrase 1 Assay (Example 119): Wnt3A-stimulated TOPbrite TCF luciferase reporter; type: cell-based; details: Compounds I-59 to I-144, procedure in Example 119 (0.5 ug/mL Wnt3A, 16 hours); read-out: TNKS1 (IC50)
Would you kindly list pIC50 for each of these molecules?
Please express pIC50 as -log10 of the molar concentration.

Query string: Could you please provide reported pIC50 for Cn1ncc2c(=O)[nH]c(-c3ccc(S(=O)(=O)C4CCCCC4)cc3)nc21 [Compound I-125] ? Thanks!
Result string: 6.75

Query string: Return value of pIC50 for input CC(C)n1ccc(C2(C)CCN(c3nc4c(cnn4C)c(=O)[nH]3)CC2)n1 [Compound I-119] , no commentary.
Result string: 6.91

Query string: Query pIC50 for Cn1ncc2c(=O)[nH]c(N3CCN(C4CCCCC4)CC3)nc21 [Compound I-118]
Result string: 6.91

Query string: Provide measured pIC50 value, entry: COCCOc1cc(F)c(N2CCN(c3nc4c(cnn4C4CCOCC4)c(=O)[nH]3)CC2)c(F)c1 [Compound I-123]
Result string: 6.77

Query string: Supply measured pIC50 of Cn1ncc2c(=O)[nH]c(-c3ccc(S(=O)(=O)CC4CCCCC4)cc3)nc21 [Compound I-108] in your reply.
Result string: 7.16

Query string: Supply recorded pIC50 for COCCO[C@H]1CC[C@@H](N2CCN(c3nc4c(cnn4C)c(=O)[nH]3)CC2)CC1 [Compound I-136] here.
Result string: 6.33

Query string: Look up and state reported pIC50 for Cn1ncc2c(=O)[nH]c(N3CCC(Cc4ccccn4)CC3)nc21 [Compound I-117]
Result string: 6.95

====

Observed pIC50, system tankyrase 2 (TNKS2) (Homo sapiens, UniProt Q9H2K2).
pIC50 is defined as minus the log10 of a concentration measured in mol/L.

Query string: Give the reported pIC50 for this compound. CCOC(=O)c1ccc(N2CCN(c3nc4c(cnn4C)c(=O)[nH]3)CC2)cc1
Result string: 6.87

Query string: For the compound Cn1ncc2c(=O)[nH]c(N3CCC(O)(c4ccccc4)CC3)nc21 , give its reported pIC50.
Result string: 7.18

Query string: Complete the entry with pIC50 for Cn1ncc2c(=O)[nH]c(N3CCN(c4ncccc4C(F)(F)F)CC3)nc21
Result string: 7.36

Query string: For the compound Cn1ncc2c(=O)[nH]c(N3CCN(c4ccc(S(N)(=O)=O)cc4F)CC3)nc21 , give its measured pIC50 value.
Result string: 7.31

Query string: Quickly give me recorded pIC50 for Cn1ncc2c(=O)[nH]c(N3CCN(c4ccccc4C#N)CC3)cc21
Result string: 7.01

====

target: Tankyrase 1 (TNKS1) (Homo sapiens); construct: His6-TNKS1, MW=28.2 KDa (construct: 1088-1327, 1266M); assay: μHTS-TNKS-IWR2 TR-FRET Binding Assay (Example 118), His6-TNKS1
Sequence (O95271 1088-1327): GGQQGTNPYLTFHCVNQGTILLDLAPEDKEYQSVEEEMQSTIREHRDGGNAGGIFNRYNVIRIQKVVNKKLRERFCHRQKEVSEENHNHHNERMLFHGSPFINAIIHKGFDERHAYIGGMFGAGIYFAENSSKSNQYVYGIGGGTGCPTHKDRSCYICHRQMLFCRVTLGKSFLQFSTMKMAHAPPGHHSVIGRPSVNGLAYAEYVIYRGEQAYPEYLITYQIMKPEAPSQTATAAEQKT
Hi there, I'd appreciate the recorded pIC50 for every entry that follows.
Recall that pIC50 is obtained by taking minus log10 of the concentration measured in molar.

Query string: Given Cn1ncc2c(=O)[nH]c(N3CCN(c4ccc(-c5nnn[nH]5)cc4F)CC3)nc21 , respond with its pIC50.
Result string: 7.59

Query string: Give me measured pIC50, please, for this compound: Cn1ncc2c(=O)[nH]c(N3CCN(c4ccnc(Cl)c4Cl)CC3)nc21
Result string: 7.21

Query string: Specify measured pIC50 for Cn1ncc2c(=O)[nH]c(N3CCC(C#N)(c4ccccn4)CC3)nc21 .
Result string: 7.33

Query string: Query pIC50 for Cn1ncc2c(=O)[nH]c(N3CCN(c4ccc(F)cc4F)CC3)cc21
Result string: 7.32

Query string: Please supply the value of reported pIC50 for the item Cn1ncc2c(=O)[nH]c(N3CCN(c4ccc(C(C)(C)O)cc4F)CC3)nc21
Result string: 7.47

Query string: Answer with the recorded pIC50 of Cn1ncc2c(=O)[nH]c(-c3ccc(C(F)(F)F)nc3)nc21 only.
Result string: 6.41

Query string: Given Cn1ncc2c(=O)[nH]c(N3CCN(c4c(F)cc(C#N)cc4F)CC3)nc21 , respond with its pIC50.
Result string: 7.26

Query string: Could you please provide reported pIC50 for Cn1ncc2c(=O)[nH]c(N3CCN(c4ccc(C#N)cc4F)CC3)nc21 ? Thanks!
Result string: 7.29

Query string: Identify measured pIC50 associated with Cn1ncc2c(=O)[nH]c(N3CCN(c4c(F)cc([N+](=O)[O-])cc4F)CC3)nc21
Result string: 7.47

Query string: Specify reported pIC50 for the compound shown: Cn1ncc2c(=O)[nH]c(N3CCN(c4ncccc4C(F)(F)F)CC3)nc21
Result string: 7.51

Query string: Tell me pIC50 reported for Cn1ncc2c(=O)[nH]c(N3CCC(O)(c4ccccn4)CC3)nc21
Result string: 7.16

Query string: Specify reported pIC50 for the compound shown: Cn1ncc2c(=O)[nH]c(N3CCN(c4ccc(S(N)(=O)=O)cc4F)CC3)nc21
Result string: 7.47

Query string: For COCCOc1cc(F)c(N2CCN(c3nc4c(cnn4C)c(=O)[nH]3)CC2)c(F)c1 , write its pIC50.
Result string: 8.12

Query string: Determine from records and report pIC50 for O=c1[nH]c(N2CCC(c3ccc(F)cc3)CC2)nc2[nH]ncc12
Result string: 6.43

Query string: Please supply the value of reported pIC50 for the item Cn1ncc2c(=O)[nH]c(N3CCN(C4CCCC4)CC3)nc21
Result string: 6.78

Query string: Identify measured pIC50 associated with O=c1[nH]c(N2CCC(c3ccc(F)cc3)CC2)cc2[nH]ncc12
Result string: 6.97

Query string: Give the measured pIC50 for Cn1ncc2c(=O)[nH]c(N3CCC(O)(c4ccccc4)CC3)nc21
Result string: 7.24

Query string: Give pIC50 for the following compound: Cn1ncc2c(=O)[nH]c(N3CCN(c4c(F)cccc4F)CC3)cc21
Result string: 7.60

Query string: # return recorded pIC50 for entry Cn1ncc2c(=O)[nH]c(N3CCN(c4ccc(C(=O)O)cc4F)CC3)nc21
Result string: 7.39

Query string: Item Cn1ncc2c(=O)[nH]c(N3CCN(c4ccccc4C#N)CC3)nc21 : provide pIC50
Result string: 7.13

Query string: Report pIC50, nothing else, for this compound: O=c1[nH]c(N2CCN(c3ccccc3F)CC2)nc2[nH]ncc12
Result string: 6.83

Query string: For the compound Cn1ncc2c(=O)[nH]c(N3CCN(CC4CCCO4)CC3)nc21 (stereo not drawn) , give its reported pIC50.
Result string: 6.81

Query string: Answer with the recorded pIC50 for the compound listed here: Cn1ncc2c(=O)[nH]c(N3CCN(c4nccs4)CC3)nc21
Result string: 6.30

Query string: Determine its reported pIC50: Cn1ncc2c(=O)[nH]c(N3CCN(c4c(F)cc(N)cc4F)CC3)nc21
Result string: 7.68
